- study_target: Stromelysin (Homo sapiens)
- Sequence (P08254 100-477): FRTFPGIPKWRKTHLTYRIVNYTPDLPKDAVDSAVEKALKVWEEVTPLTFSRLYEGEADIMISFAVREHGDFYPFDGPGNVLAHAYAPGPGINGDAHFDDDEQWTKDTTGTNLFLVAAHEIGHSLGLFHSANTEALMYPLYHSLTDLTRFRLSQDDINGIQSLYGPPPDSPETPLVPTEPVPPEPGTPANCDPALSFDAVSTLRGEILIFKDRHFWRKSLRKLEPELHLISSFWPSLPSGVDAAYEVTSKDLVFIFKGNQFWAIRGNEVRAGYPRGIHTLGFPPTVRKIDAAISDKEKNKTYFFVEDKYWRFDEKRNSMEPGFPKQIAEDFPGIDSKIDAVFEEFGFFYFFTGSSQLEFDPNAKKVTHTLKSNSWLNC
So basically: is Ki under 80 nM? Then class 1. Not under? Then class 0.

Task: Does the reported Ki of "COc1ccc(S(=O)(=O)CC(O)(CS(=O)(=O)c2ccc(OC)cc2)C(=O)NO)cc1" stay below 80 nM?
Output: class 1

Task: Hi there! Is Ki for COc1ccc(C(=O)NCC(O)(CS(=O)(=O)c2ccc(OC)cc2)C(=O)NO)cc1 (centres unmarked) below 80 nM, do you know?
Output: class 0

***
Task: I'd appreciate it if you could check whether COc1ccc(S(=O)(=O)CC(O)(CS(=O)(=O)c2ccc(-c3ccccc3)cc2)C(=O)NO)cc1 (single isomer, unassigned) [Example 1, Enantiomer A] has Ki smaller than 80 nM.
Output: class 1

Task: Does this compound meet the criterion Ki < 80 nM? COc1ccc(S(=O)(=O)CC(O)(CS(=O)(=O)c2ccc(F)cc2)C(=O)NO)cc1 (centres unmarked)
Output: class 0
